Entries and their Kd values follow.
- SYSTEM_UNDER_TEST: T1, GFP-9S library array, motif 4 ND N98C;D124A (synthetic construct, N98C;D124A)
- T1 chain: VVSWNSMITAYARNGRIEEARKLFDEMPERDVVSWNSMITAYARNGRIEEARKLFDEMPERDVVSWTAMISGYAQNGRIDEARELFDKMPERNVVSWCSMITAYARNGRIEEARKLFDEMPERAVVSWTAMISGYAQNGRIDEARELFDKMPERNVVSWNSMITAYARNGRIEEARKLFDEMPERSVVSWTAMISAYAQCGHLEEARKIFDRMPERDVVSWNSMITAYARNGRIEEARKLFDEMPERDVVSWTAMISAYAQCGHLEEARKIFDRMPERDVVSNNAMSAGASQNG
- ASSAY_DETAILS: high-throughput RNA pulldown from lysate on Ni-NTA beads; HRP: 50 mM Tris pH 8, 150 mM NaCl, 1 mM beta-mercaptoethanol, 50 ug/ml BSA, 3 ug/ml yeast RNA, 0.5% heparin; ITC and FP: Tris pH 8, 200 mM KCl, 5% glycerol; MST: 50 mM Tris pH 8, 200 mM NaCl, 1 mM DTT, BSA, heparin, 0.05% Tween 20
- CONDITION: tags: N-terminal His-eGFP; label: 5' IRDye 800CW
Report as a plain number; the unit nM is understood.

Record AUUAAACGUGA (ssRNA) [IR-rpoA-A] , field Kd: 98.2

Record AUUAUACGUGA (ssRNA) [IR-rpoA-U] , field Kd: 159

Where do the numbers come from? From paper PMC8809517.
